Each recorded value in this set is attributed to patent US20150141433A1.

- testedTarget: NR1/NR2A (Homo sapiens, UniProt Q05586+Q12879)
- Construct: host or cells: HEK293 (tetracycline-inducible NR2A expression)
- Sequence (Q12879 23-1464, other chains not shown): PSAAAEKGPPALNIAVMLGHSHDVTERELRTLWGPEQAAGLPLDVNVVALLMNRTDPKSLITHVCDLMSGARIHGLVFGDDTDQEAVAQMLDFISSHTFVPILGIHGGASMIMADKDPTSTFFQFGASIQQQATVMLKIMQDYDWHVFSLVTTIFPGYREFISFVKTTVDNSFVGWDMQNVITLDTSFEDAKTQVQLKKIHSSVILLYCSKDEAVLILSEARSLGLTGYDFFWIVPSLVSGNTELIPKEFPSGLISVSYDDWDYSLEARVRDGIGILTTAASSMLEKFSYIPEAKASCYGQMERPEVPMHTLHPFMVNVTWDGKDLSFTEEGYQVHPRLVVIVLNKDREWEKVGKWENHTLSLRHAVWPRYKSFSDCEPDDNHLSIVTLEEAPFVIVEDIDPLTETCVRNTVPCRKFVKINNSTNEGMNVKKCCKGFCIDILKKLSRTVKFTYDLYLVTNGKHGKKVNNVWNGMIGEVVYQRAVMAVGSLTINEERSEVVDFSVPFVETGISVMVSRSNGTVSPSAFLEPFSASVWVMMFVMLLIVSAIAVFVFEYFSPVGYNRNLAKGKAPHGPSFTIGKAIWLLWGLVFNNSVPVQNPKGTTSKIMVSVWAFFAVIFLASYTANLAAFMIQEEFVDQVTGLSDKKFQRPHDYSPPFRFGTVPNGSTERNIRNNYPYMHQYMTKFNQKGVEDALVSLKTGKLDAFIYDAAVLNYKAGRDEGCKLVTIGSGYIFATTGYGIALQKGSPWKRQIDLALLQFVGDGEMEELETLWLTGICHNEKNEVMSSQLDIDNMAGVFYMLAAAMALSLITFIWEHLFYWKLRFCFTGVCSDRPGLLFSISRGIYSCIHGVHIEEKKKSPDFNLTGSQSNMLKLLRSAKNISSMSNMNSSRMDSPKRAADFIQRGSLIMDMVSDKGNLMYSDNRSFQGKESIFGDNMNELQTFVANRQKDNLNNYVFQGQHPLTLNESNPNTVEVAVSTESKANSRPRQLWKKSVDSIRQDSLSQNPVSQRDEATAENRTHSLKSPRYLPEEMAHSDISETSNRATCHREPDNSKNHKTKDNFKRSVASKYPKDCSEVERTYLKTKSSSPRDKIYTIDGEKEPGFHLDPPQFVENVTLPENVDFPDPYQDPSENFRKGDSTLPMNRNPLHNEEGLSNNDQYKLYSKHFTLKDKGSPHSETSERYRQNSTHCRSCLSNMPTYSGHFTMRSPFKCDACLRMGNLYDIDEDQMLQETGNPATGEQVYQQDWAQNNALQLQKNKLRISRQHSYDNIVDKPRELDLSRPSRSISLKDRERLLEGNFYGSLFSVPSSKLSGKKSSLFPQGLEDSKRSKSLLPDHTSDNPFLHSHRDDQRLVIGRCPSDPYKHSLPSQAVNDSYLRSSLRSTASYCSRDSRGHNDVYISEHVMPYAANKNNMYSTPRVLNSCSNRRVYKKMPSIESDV
- assayMethodText: FDSS Ca2+ influx inhibition assay in HEK293 cells expressing NR1/NR2A
- Type: cell-based
- studyConditions: 3 μM glutamate, 3 μM glycine, 1 mM Ca2+, Ca2+ influx inhibition relative to MK801, read-out: NR2A IC50
readout: log10 IC50 (log10 of the value in nM)

compound: Cc1nnc(CNC(=O)c2ccc(CNS(=O)(=O)c3ccc(F)c(Cl)c3)cn2)s1
testedTarget: NR1/NR2A (Homo sapiens, UniProt Q05586+Q12879)
reportedResult: 3.01
//
compound: Cc1ncc(CNC(=O)c2cnc(CNS(=O)(=O)c3ccc(F)cc3)c(C)n2)s1
testedTarget: NR1/NR2A (Homo sapiens, UniProt Q05586+Q12879)
reportedResult: 2.14
//
compound: Cn1cccc1CNC(=O)c1ccc(CNS(=O)(=O)c2ccc(F)c(Cl)c2)cn1
testedTarget: NR1/NR2A (Homo sapiens, UniProt Q05586+Q12879)
reportedResult: 3.41
//
compound: CC(NC(=O)c1ccc(CNS(=O)(=O)c2ccc(F)c(Cl)c2)cn1)c1ccco1 (centres unmarked)
testedTarget: NR1/NR2A (Homo sapiens, UniProt Q05586+Q12879)
reportedResult: 3.74
//
compound: Cc1cnc(CNC(=O)c2cnc(CNS(=O)(=O)c3ccc(F)c(Cl)c3)cn2)cn1
testedTarget: NR1/NR2A (Homo sapiens, UniProt Q05586+Q12879)
reportedResult: 3.10

====

- testedTarget: NR1/NR2A (Homo sapiens, UniProt Q05586+Q12879)
- Construct: host or cells: HEK293 (tetracycline-inducible NR2A expression)
- assayMethodText: FDSS Ca2+ influx inhibition assay in HEK293 cells expressing NR1/NR2A
- Assay type: cell-based
- studyConditions: 3 μM glutamate, 3 μM glycine, 1 mM Ca2+, Ca2+ influx inhibition relative to MK801, read-out: NR2A IC50
This section presents compounds with their documented log10 IC50 values.
readout: log10 IC50 (log10 of the value in nM)

compoundStructureString: Cc1ncc(CNC(=O)c2ccc(CNS(=O)(=O)c3ccc(Cl)c(F)c3)cn2)s1
testedTarget: NR1/NR2A (Homo sapiens, UniProt Q05586+Q12879)
log10 IC50: 3.87
//
compoundStructureString: Cc1ccncc1CNC(=O)c1cnc(CNS(=O)(=O)c2ccc(F)c(Cl)c2)cn1
testedTarget: NR1/NR2A (Homo sapiens, UniProt Q05586+Q12879)
log10 IC50: 2.03
//
compoundStructureString: Cc1ccncc1CNC(=O)c1ccc(CNS(=O)(=O)c2ccc(F)c(Cl)c2)nc1
testedTarget: NR1/NR2A (Homo sapiens, UniProt Q05586+Q12879)
log10 IC50: 3.99
//
compoundStructureString: C[C@@H](NC(=O)c1cnc(CNS(=O)(=O)c2ccc(F)c(Cl)c2)cn1)c1cncs1
testedTarget: NR1/NR2A (Homo sapiens, UniProt Q05586+Q12879)
log10 IC50: 4.02
//
compoundStructureString: COc1ccc(CNC(=O)c2ccc(CNS(=O)(=O)c3ccc(F)c(Cl)c3)cn2)cn1
testedTarget: NR1/NR2A (Homo sapiens, UniProt Q05586+Q12879)
log10 IC50: 3.30
//
compoundStructureString: Cc1nnc(CNC(=O)c2cnc(CNS(=O)(=O)c3ccc(F)c(Cl)c3)cn2)o1
testedTarget: NR1/NR2A (Homo sapiens, UniProt Q05586+Q12879)
log10 IC50: 3.39
//
compoundStructureString: COc1cccc(CNC(=O)c2ccc(CNS(=O)(=O)c3ccc(F)c(Cl)c3)cn2)c1
testedTarget: NR1/NR2A (Homo sapiens, UniProt Q05586+Q12879)
log10 IC50: 3.53
//
compoundStructureString: Cc1nnc(CNC(=O)c2ccc(CNS(=O)(=O)c3ccc(F)c(Cl)c3)cn2)o1
testedTarget: NR1/NR2A (Homo sapiens, UniProt Q05586+Q12879)
log10 IC50: 3.45
//
compoundStructureString: Cc1ncc(CNC(=O)c2cnc(CNS(=O)(=O)c3ccc(Cl)c(Cl)c3)c(C)n2)s1
testedTarget: NR1/NR2A (Homo sapiens, UniProt Q05586+Q12879)
log10 IC50: 2.69
//
compoundStructureString: Cc1ncc(CNC(=O)c2cnc(CNS(=O)(=O)c3ccc(F)c(Cl)c3)c(C)n2)s1
testedTarget: NR1/NR2A (Homo sapiens, UniProt Q05586+Q12879)
log10 IC50: 1.29
//
compoundStructureString: Cn1cncc1CNC(=O)c1ccc(CNS(=O)(=O)c2ccc(F)c(Cl)c2)cn1
testedTarget: NR1/NR2A (Homo sapiens, UniProt Q05586+Q12879)
log10 IC50: 3.92

====

This section presents compounds with their documented log10 IC50 values.
- testedTarget: NR1/NR2A (Homo sapiens, UniProt Q05586+Q12879)
- Construct: host or cells: HEK293 (tetracycline-inducible NR2A expression)
- assayMethodText: FDSS Ca2+ influx inhibition assay in HEK293 cells expressing NR1/NR2A
- Type: cell-based
- studyConditions: 3 μM glutamate, 3 μM glycine, 1 mM Ca2+, Ca2+ influx inhibition relative to MK801, read-out: NR2A IC50
readout: log10 IC50 (log10 of the value in nM)

compound: Cc1ncc(CNC(=O)c2ccc(CNS(=O)(=O)c3ccc(F)c(F)c3)cn2)s1
reportedResult: 2.34
//
compound: Cc1ncc(CNC(=O)c2cnc(CNS(=O)(=O)c3cccc(Cl)c3)c(C)n2)s1
reportedResult: 1.60
//
compound: O=C(NCc1cncnc1)c1ccc(CNS(=O)(=O)c2ccc(F)c(Cl)c2)cn1
reportedResult: 3.87
//
compound: O=C(NCc1cncs1)c1ccc(CNS(=O)(=O)c2ccc(F)c(Cl)c2)cn1
reportedResult: 2.54
//
compound: O=C(NCc1cnccn1)c1ccc(CNS(=O)(=O)c2ccc(F)c(Cl)c2)nc1
reportedResult: 2.90
//
compound: O=C(NCc1cccnc1)c1ccc(CNS(=O)(=O)c2ccc(F)c(Cl)c2)nc1
reportedResult: 4.04
//
compound: O=C(NCc1cccnc1)c1cnc(CNS(=O)(=O)c2ccc(F)c(Cl)c2)cn1
reportedResult: 2.64
//
compound: O=C(NCc1cncnc1)c1cnc(CNS(=O)(=O)c2ccc(F)c(Cl)c2)cn1
reportedResult: 3.68
//
compound: O=C(NCc1cncs1)c1cnc(CNS(=O)(=O)c2ccc(F)c(Cl)c2)cn1
reportedResult: 2.97
//
compound: O=C(NCc1ccncc1)c1cnc(CNS(=O)(=O)c2ccc(F)c(Cl)c2)cn1
reportedResult: 3.23
//
compound: Cc1ncc(CNC(=O)c2ccc(CNS(=O)(=O)c3cccs3)cn2)s1
reportedResult: 3.60
//
compound: COc1cc(CNC(=O)c2ccc(CNS(=O)(=O)c3ccc(F)c(Cl)c3)cn2)ccn1
reportedResult: 3.48
//
compound: Cc1cnc(CNC(=O)c2ccc(CNS(=O)(=O)c3ccc(F)c(Cl)c3)nc2)cn1
reportedResult: 2.80
//
compound: O=C(NCc1nccs1)c1ccc(CNS(=O)(=O)c2ccc(F)c(Cl)c2)cn1
reportedResult: 3.96
//
compound: Cc1ncc(CNC(=O)c2ccc(CNS(=O)(=O)c3ccc(Cl)c(Cl)c3)cn2)s1
reportedResult: 3.82
//
compound: O=C(NCc1cnco1)c1ccc(CNS(=O)(=O)c2ccc(F)c(Cl)c2)cn1
reportedResult: 3.29
//
compound: Cc1ccc(CNC(=O)c2cnc(CNS(=O)(=O)c3ccc(F)c(Cl)c3)cn2)n1C
reportedResult: 2.88
//
compound: Cn1cc(CNC(=O)c2ccc(CNS(=O)(=O)c3ccc(F)c(Cl)c3)cn2)cn1
reportedResult: 3.66
//
compound: O=C(NCc1cnccn1)c1cnc(CNS(=O)(=O)c2ccc(F)c(Cl)c2)cn1
reportedResult: 3.32
//
compound: Cn1cccc1CNC(=O)c1cnc(CNS(=O)(=O)c2ccc(F)c(Cl)c2)cn1
reportedResult: 3.49
//
compound: O=C(NCc1cccnc1)c1ccc(CNS(=O)(=O)c2ccc(F)c(Cl)c2)cn1
reportedResult: 2.88
//
compound: Cc1ncc(CNC(=O)c2cnc(CNS(=O)(=O)c3ccc(F)cc3)cn2)s1
reportedResult: 3.74
//
compound: O=C(NCc1cncc(F)c1)c1cnc(CNS(=O)(=O)c2ccc(F)c(Cl)c2)cn1
reportedResult: 3.04
//
compound: Cc1ncc(CNC(=O)c2ccc(CNS(=O)(=O)c3cccc(Cl)c3)cn2)s1
reportedResult: 3.02
//
compound: Cc1ncc(CNC(=O)c2cnc(CNS(=O)(=O)c3ccc(Cl)c(F)c3)c(C)n2)s1
reportedResult: 3.01
//
compound: Cc1ncc(C(C)NC(=O)c2cnc(CNS(=O)(=O)c3ccc(F)c(Cl)c3)cn2)s1 (stereo not shown)
reportedResult: 2.26
//
compound: Cc1ncc(CNC(=O)c2cnc(CNS(=O)(=O)c3cccc(Cl)c3)cn2)s1
reportedResult: 2.92
//
compound: COc1cc(CNC(=O)c2cnc(CNS(=O)(=O)c3ccc(F)c(Cl)c3)cn2)ccn1
reportedResult: 2.93
//
compound: Cc1ncc(CNC(=O)c2ccc(CNS(=O)(=O)c3ccc(F)cc3)cn2)s1
reportedResult: 3.45
//
compound: Cc1ncc(CNC(=O)c2cnc(CNS(=O)(=O)c3cccs3)cn2)s1
reportedResult: 3.58
//
compound: Cc1ccncc1CNC(=O)c1ccc(CNS(=O)(=O)c2ccc(F)c(Cl)c2)cn1
reportedResult: 2.27
//
compound: O=C(NCc1ccno1)c1ccc(CNS(=O)(=O)c2ccc(F)c(Cl)c2)cn1
reportedResult: 3.34
//
compound: CCc1nc(C(=O)NCc2cnc(C)s2)cnc1CNS(=O)(=O)c1ccc(F)c(Cl)c1
reportedResult: 1.94
//
compound: Cn1ccnc1CNC(=O)c1ccc(CNS(=O)(=O)c2ccc(F)c(Cl)c2)nc1
reportedResult: 2.03
//
compound: Cc1nnc(CNC(=O)c2cnc(CNS(=O)(=O)c3ccc(F)c(Cl)c3)cn2)s1
reportedResult: 2.80
//
compound: Cn1cncc1CNC(=O)c1cnc(CNS(=O)(=O)c2ccc(F)c(Cl)c2)cn1
reportedResult: 3.95
//
compound: Cc1ncc(CNC(=O)c2cnc(CNS(=O)(=O)c3cc(Cl)ccc3F)c(C)n2)s1
reportedResult: 3.91
//
compound: Cc1ncc(CNC(=O)c2cnc(CNS(=O)(=O)c3ccc(F)c(F)c3)cn2)s1
reportedResult: 2.50
